Values were extracted from PubChem BioAssay (NCI).

Test system: K-562 leukemia
Assay: NCI tumour cell line growth inhibition, 48 h
property-label: TGI

These recorded examples may help you get a feel for the data.
molecule: CC(C)S(=O)(=O)ON1C(=O)c2ccc([N+](=O)[O-])cc2C1=O
study-system: K-562 leukemia
TGI: > 100 µM
--
molecule: Cc1cnc2[nH]c(-c3sccc3C)cc(=O)c2c1
study-system: K-562 leukemia
TGI: > 100 µM
--
molecule: CCC1C(=O)OCc2c1cc1n(c2=O)Cc2ccccc2-1 (configuration not stated)
study-system: K-562 leukemia
TGI: > 100 µM
--
molecule: CC1CC/C(=C\c2ccc(F)cc2)C2=C1C(c1ccc(F)cc1)NC(=S)N2 (configuration not stated)
study-system: K-562 leukemia
TGI: > 100 µM
--
molecule: O=c1[nH]c(=O)c2c([nH]1)[nH]c1ccccc12
study-system: K-562 leukemia
TGI: > 100 µM

# input What value of measured TGI is listed for COc1ccc2nc(NC(=O)C(=O)C(C#N)c3ccc(CC#N)cc3)sc2c1 (configuration not stated) ?
# output > 100 µM

# input What value of measured TGI is listed for NC(=O)COc1ccc(Br)cc1Br ?
# output > 100 µM

###

System: OVCAR-4 ovarian
Assay: NCI tumour cell line growth inhibition, 48 h
property-label: TGI

compound: COc1ccc(C2CCc3c(cnc4nc(N)nc(N)c34)C2)cc1 (stereo not given)
TGI: > 100 µM
--
compound: CCOC(=O)CCC1(C(=O)O[C@@H]2C[C@H](C)CC[C@H]2C(C)C)CCCCC1=O (stereo not given in full)
TGI: > 100 µM
--
compound: Cn1cc(C2=C(c3cn(C)c4cc(Cl)ccc34)C(=O)NC2=O)c2ccccc21
TGI: > 25 µM
--
compound: CC[C@@]1(O)C(=O)N(CCN(C)C)Cc2c1cc1n(c2=O)Cc2cc3ccccc3nc2-1
TGI: > 100 µM

// switching to the query compound
# input What value of measured TGI is listed for COc1cc(OC)cc(-c2nc3ccccc3c(=O)[nH]2)c1 ?
# output > 100 µM

###

Tested on: TK-10 renal
Assay: NCI tumour cell line growth inhibition, 48 h
property-label: TGI

# input For the record CC(=O)c1nc(C#N)c(N)o1 , what value of TGI is listed for TK-10 renal?
# output > 100 µM

# input For the record O=C(/C=C/c1ccc(OCCCOc2ccc(/C=C/C(=O)c3ccc(Cl)cc3)cc2)cc1)c1ccc(Cl)cc1 , what value of TGI is listed for TK-10 renal?
# output > 100 µM

# input For the record CC1CC(=O)CC[C@@H]1OCc1ccccc1 (stereo partly drawn) , what value of TGI is listed for TK-10 renal?
# output > 100 µM

# input For the record N#CC(N)(C(=O)C(=O)NCCCNC(=O)C(=O)C(N)(C#N)c1ccc(Cl)cc1)c1ccc(Cl)cc1 (stereo not drawn) , what value of TGI is listed for TK-10 renal?
# output > 100 µM

# input For the record COc1cc(OC)cc(-c2nc3ccccc3c(=O)[nH]2)c1 , what value of TGI is listed for TK-10 renal?
# output > 100 µM

###

Test system: SK-MEL-2 melanoma
Experiment: NCI tumour cell line growth inhibition, 48 h; in the data active means GI50 below about 0.43 µM; inactive means the rest
The reply should name one outcome from active, inactive

Worked cases, answers included:
compound: COc1ccc2c(c1)/C(=N/OC(C)=O)c1c-2c(Nc2ccc(/C(C)=N/OC(C)=O)cc2)nc2ccccc12
study-system: SK-MEL-2 melanoma
qualitative-label: inactive

compound: O=C(Nc1ccc(Oc2cccc(Cl)c2)c(Cl)c1)c1cccnc1
study-system: SK-MEL-2 melanoma
qualitative-label: inactive

compound: Cc1c(-c2ccnc(N)n2)c2c(n1-c1ccccc1)C(=O)c1ccccc1C2=O
study-system: SK-MEL-2 melanoma
qualitative-label: inactive

compound: CCN(CC)CCn1nc2c3c(cccc3c1=O)-c1ccccc1-2
study-system: SK-MEL-2 melanoma
qualitative-label: inactive

compound: COC(=O)C1=C(C)NC(C)=C(C(=O)OC)C1c1ccccc1[N+](=O)[O-]
study-system: SK-MEL-2 melanoma
qualitative-label: inactive

# input State the result this test recorded for NC(=S)c1cn(C2OC(CO)C(O)C2O)c2ncnc(N)c12 (stereo unspecified) .
# output active

# input State the result this test recorded for CN(C)CC1CCCCCCCCCCC1=O (stereo unspecified) .
# output inactive

# input State the result this test recorded for CC(=O)O[C@H]1Cc2c([nH]c3ccccc23)[C@@H](c2ccc(Cl)cc2)N1C(=O)CCNC(C)(C)C .
# output inactive
